Data credit: patent US8034806B2

# study-system: UniProt P31424
# Sequence (P31424 21-1203): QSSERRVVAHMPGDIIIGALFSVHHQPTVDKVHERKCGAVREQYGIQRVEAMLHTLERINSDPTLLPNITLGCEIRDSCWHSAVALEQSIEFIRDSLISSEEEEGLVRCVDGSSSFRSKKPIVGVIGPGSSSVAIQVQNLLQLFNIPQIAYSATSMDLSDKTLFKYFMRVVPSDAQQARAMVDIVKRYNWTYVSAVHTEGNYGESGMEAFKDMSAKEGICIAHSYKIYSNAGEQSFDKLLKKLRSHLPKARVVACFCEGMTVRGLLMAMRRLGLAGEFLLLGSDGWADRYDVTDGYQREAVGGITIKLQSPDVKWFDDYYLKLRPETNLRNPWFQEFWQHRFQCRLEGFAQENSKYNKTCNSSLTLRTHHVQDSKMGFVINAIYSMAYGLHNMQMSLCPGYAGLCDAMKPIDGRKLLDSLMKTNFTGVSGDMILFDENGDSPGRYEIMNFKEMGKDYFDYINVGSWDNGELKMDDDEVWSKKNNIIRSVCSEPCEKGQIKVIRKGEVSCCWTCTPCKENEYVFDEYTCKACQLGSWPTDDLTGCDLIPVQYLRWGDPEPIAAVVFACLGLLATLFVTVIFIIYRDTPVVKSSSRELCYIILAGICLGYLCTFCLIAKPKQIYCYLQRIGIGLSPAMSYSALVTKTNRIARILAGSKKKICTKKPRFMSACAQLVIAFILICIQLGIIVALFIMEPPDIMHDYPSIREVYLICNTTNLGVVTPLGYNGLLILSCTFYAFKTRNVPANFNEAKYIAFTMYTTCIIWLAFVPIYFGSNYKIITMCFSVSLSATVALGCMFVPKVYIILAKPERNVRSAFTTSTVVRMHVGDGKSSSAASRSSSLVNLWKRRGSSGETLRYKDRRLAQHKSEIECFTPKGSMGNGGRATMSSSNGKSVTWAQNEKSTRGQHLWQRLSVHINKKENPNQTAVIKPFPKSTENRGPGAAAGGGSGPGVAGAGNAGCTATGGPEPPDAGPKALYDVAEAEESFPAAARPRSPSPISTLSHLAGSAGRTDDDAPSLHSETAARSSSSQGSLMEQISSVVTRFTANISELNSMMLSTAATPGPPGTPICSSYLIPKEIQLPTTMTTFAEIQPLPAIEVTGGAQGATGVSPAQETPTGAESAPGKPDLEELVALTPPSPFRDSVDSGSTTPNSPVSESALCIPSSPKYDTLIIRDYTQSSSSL
# procedure-details: Potentiation of glutamate response, calcium fluorescence (FDSS) in HEK cells transfected with rat mGluR5
# conditions-used: HEK cells transfected with rat mGluR5; EC20 concentration of glutamate; read-out: mGluR5 Potentiator EC50
endpoint-label: EC50 (µM)

Solved cases (6 shown):
> print(dat)
                                   compound  unit.abbrev  meas.value
1  O=C1c2ccc(C#Cc3ccccc3)cc2CCN1CC1CCC1 [VU000099]           µM      0.0267
2  O=C1c2ccc(C#Cc3ccccc3)cc2CCN1CCN1CCC1 [VU000100]           µM        4.04
3  O=C1NCCc2cc(C#Cc3cccc(Cl)c3)ccc21 [VU000114]           µM        0.47
4  O=C1NCCc2cc(C#Cc3ccccc3Cl)ccc21 [VU000111]           µM        4.89
5  COCCNC(=O)CN1CCc2cc(C#Cc3ccccc3)ccc2C1=O [VU000127]           µM        3.06
6  O=C1NCCc2cc(C#Cc3cc(F)cc(F)c3)ccc21 [VU000116]           µM           3

(A) Cc1cc(C#Cc2ccc3c(c2)CCNC3=O)ccc1F [VU000112]
(B) O=C1NCCc2cc(C#Cc3ccccc3F)ccc21 [VU000108]
// max by EC50 over [ A , B ] // respond with label for picked entry
A
(A: 3.67 µM, B: 0.145 µM)
